# Target Entity: T1, L-selectin on PBMC / lymphocytes (Homo sapiens, UniProt P14151 P14151:39-372)
# T1 sequence: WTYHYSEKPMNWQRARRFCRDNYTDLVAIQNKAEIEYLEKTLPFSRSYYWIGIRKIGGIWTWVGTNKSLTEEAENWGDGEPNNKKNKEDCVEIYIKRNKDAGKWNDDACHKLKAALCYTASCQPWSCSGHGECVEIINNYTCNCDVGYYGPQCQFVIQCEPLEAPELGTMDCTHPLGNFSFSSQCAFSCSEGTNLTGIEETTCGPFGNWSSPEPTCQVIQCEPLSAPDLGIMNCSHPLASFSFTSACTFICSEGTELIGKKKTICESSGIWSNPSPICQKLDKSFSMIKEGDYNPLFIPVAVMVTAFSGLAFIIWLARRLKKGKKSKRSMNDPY
# Test Name: flow; half-saturation
# Conditions: label: 5' fluorescein
pEC50: −log10 of the molar value.

| Binder | pEC50 |
| --- | --- |
| TAGCCAAGGTAACCAGTACAAGGTGCTAAACGTAATGGCTTCGGCTTAC (ssDNA, two copies linked 3' ends via five-unit ethylene glycol spacers to 3'-3' symmetric linker) [LD201T1 branched dimer] | ~9.82 |

FYI, the data here is from patent US20030059769.
